Where do these numbers come from? They come from PubChem BioAssay (NCI).

# Tested on: KM12 colon
# experiment_summary: NCI tumour cell line growth inhibition, 48 h
Entries annotated with measured TGI
endpoint: TGI

* O=S(=O)(Nc1nc2ccccc2nc1Nc1ccc2ccccc2c1)c1ccccc1 | > 59.3 µM
* O=C1CC2CC3OC3[C@H]3c4cc5c(cc4C(=O)N1C23)OCO5 (stereo not given in full) | > 100 µM
* Cc1ccc(/C=N/n2c(-c3ccc(C)cc3)n[nH]c2=O)cc1 | > 100 µM
* Cc1ccccc1NC(=O)c1cc(-c2ccc([N+](=O)[O-])cc2)nc(=S)[nH]1 | > 100 µM
* O=C(O)c1ccc(NCn2nc(-c3ccccc3O)oc2=S)cc1 | > 100 µM
* Brc1ccc(C[P+]2(c3ccccc3)CCCCC2)cc1 | > 100 µM
* COc1cc2c(c(OC)c1OC)-c1ncc3c(OC)c(OC)c(OC)cc3c1C2 | 40.4 µM
* O=C(/C=C/C12c3ccccc3C(c3ccccc31)C1C(=O)NC(=O)C12)c1ccc(Cl)cc1Cl (stereo not given) | 3.43 µM
* CCOC(=O)C(Cc1c[nH]c2c(N(CCO)CCO)cccc12)(NC(C)=O)C(=O)OCC | 978 µM
* COc1cc(C2SCCCCCCCCCCSC(c3ccc(O)c(OC)c3)SCCCCCCCCCCS2)ccc1O (stereo not given) | > 100 µM
